study_target: human Yes1 enzyme (Homo sapiens)
Construct: made in house
assay_comment: Yes1 enzyme inhibitory activity (time-resolved fluorometry, biotinylated peptide phosphorylation)
Assay type: biochemical
experimental_conditions: biotinylated peptide phosphorylation, read-out: YES_IC50
Would you mind telling me the reported pIC50 of each entry?
pIC50 (log units): -log10 of the concentration in mol/L.

Exam item: What value of pIC50 has been reported for the following molecule? Cc1cc2cc(C(=O)c3cnn(-c4cnc(Oc5c(F)cccc5Cl)cc4C)c3N)[nH]c2cc1NS(C)(=O)=O
Marked response: 8.62

Exam item: Next up: Cc1cc(Oc2ccccc2F)ccc1-n1ncc(C(=O)c2cc3cc(F)c(NS(=O)(=O)c4cccc(Cl)n4)cc3[nH]2)c1N
Marked response: 8.49

Exam item: Next up: Cc1cc2cc(C(=O)c3cnn(-c4cnc(Oc5ccc(F)cc5)cc4C)c3N)[nH]c2cc1NS(=O)(=O)CCCF
Marked response: 7.74

Exam item: Next up: Cc1cc(Oc2c(F)cccc2Cl)ncc1-n1ncc(C(=O)c2cc3cc(F)c(NS(C)(=O)=O)cc3[nH]2)c1N
Marked response: 8.89

Exam item: Next up: COc1cc(F)cc(S(=O)(=O)Nc2cc3[nH]c(C(=O)c4cnn(-c5cnc(Oc6ccccc6F)cc5C)c4N)cc3cc2C)c1
Marked response: 7.96

Exam item: Next up: Cc1cc(Oc2c(F)cccc2F)ncc1-n1ncc(C(=O)c2cc3cc(OC(F)F)c(C4CCN(C(=O)CN)CC4)cc3[nH]2)c1N
Marked response: 8.32

Exam item: Next up: Cc1cc(Oc2ccccc2F)cc(F)c1-n1ncc(C(=O)c2cc3cc(OCC(F)F)c(NS(C)(=O)=O)cc3[nH]2)c1N
Marked response: 8.80

Exam item: Next up: COc1cc2cc(C(=O)c3cnn(-c4cnc(Oc5ccccc5F)cc4C)c3N)[nH]c2cc1NS(C)(=O)=O
Marked response: 9.16

Exam item: Next up: Cc1cc(Oc2ccccc2F)ncc1-n1ncc(C(=O)c2cc3cc(F)c(NS(=O)(=O)CCCF)cc3[nH]2)c1N
Marked response: 8.70

Exam item: Next up: Cc1cc(Oc2ccc(F)cc2)ncc1-n1ncc(C(=O)c2cc3cc(Cl)c(NS(C)(=O)=O)cc3[nH]2)c1N
Marked response: 7.72

Exam item: Next up: Cc1cc2cc(C(=O)c3cnn(-c4ccc(Oc5cccc(F)c5F)cc4C)c3N)[nH]c2cc1NS(C)(=O)=O
Marked response: 8.82

Exam item: Next up: Cc1cc(Oc2c(F)cccc2F)ncc1-n1ncc(C(=O)c2cc3cc(N4CCOCC4)c(NS(C)(=O)=O)cc3[nH]2)c1N
Marked response: 8.59

Exam item: Next up: Cc1cc2cc(C(=O)c3cnn(-c4cnc(Oc5ccccc5F)cc4C)c3N)[nH]c2cc1N1CCCS1(=O)=O
Marked response: 9.21

----------
study_target: human Src enzyme (Homo sapiens, UniProt P12931)
Construct: purchased Carna Biosciences, Inc. 08-173
Sequence (P12931 whole entry): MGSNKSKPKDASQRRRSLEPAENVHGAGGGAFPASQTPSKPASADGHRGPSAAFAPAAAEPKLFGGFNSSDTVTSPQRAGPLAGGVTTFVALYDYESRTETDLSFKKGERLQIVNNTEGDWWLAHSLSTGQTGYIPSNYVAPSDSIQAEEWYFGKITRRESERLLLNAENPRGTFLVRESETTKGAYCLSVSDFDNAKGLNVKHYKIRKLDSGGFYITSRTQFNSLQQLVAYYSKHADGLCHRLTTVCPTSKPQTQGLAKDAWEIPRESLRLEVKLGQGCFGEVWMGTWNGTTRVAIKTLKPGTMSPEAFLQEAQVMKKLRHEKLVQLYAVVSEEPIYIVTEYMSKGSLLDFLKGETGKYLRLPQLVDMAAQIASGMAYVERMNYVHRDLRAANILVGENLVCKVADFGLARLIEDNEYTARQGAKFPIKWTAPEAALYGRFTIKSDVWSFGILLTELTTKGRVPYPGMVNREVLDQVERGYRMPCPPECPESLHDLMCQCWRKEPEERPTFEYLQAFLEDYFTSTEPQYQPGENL
assay_comment: Src enzyme inhibitory activity (time-resolved fluorometry, biotinylated peptide phosphorylation)
Type: biochemical
experimental_conditions: biotinylated peptide phosphorylation, read-out: SRC_IC50
reported_property: log10 of IC50 (log10 of the value in nM)
Note the log scale: values are log10 of IC50 expressed in nM.

Exam item: What value of log10 of IC50 has been reported for the following molecule? Cc1cc2cc(C(=O)c3cnn(-c4cnc(Oc5c(F)cccc5F)cc4C)c3N)[nH]c2cc1N1C(=O)[C@@H]2C[C@@H](O)CN2C1=O
Marked response: 1.36

Exam item: Next up: Cc1cc(Oc2c(F)cccc2F)ncc1-n1ncc(C(=O)c2cc3cc(OC(F)F)c(N4CCOCC4)cc3[nH]2)c1N
Marked response: 1.93

Exam item: Next up: Cc1cccc(S(=O)(=O)Nc2cc3[nH]c(C(=O)c4cnn(-c5cnc(Oc6ccccc6F)cc5C)c4N)cc3cc2C)c1
Marked response: 3.00

Exam item: Next up: Cc1cc(Oc2c(F)cccc2F)ncc1-n1ncc(C(=O)c2cc3cc(OCC(F)F)c(NC4COC4)cc3[nH]2)c1N
Marked response: 1.36

Exam item: Next up: Cc1cc(Oc2ccccc2F)ccc1-n1ncc(C(=O)c2cc3cc(OCCN4CC5CC(C4)N5S(C)(=O)=O)c(NS(C)(=O)=O)cc3[nH]2)c1N
Marked response: 1.38

Exam item: Next up: Cc1cc2cc(C(=O)c3cnn(-c4cnc(Oc5ccccc5Cl)cc4C)c3N)[nH]c2cc1NS(C)(=O)=O
Marked response: 1.89

----------
study_target: human Yes1 enzyme (Homo sapiens)
Construct: made in house
assay_comment: Yes1 enzyme inhibitory activity (time-resolved fluorometry, biotinylated peptide phosphorylation)
Type: biochemical
experimental_conditions: read-out: YES_IC50
Criterion: IC50 strictly less than 2 nM. Met: Criterion met. Not met: Criterion not met.

Exam item: Record Cc1cc2cc(C(=O)c3cnn(-c4c(C)cc(Oc5ccccc5F)cc4F)c3N)[nH]c2cc1NS(=O)(=O)CC(=O)N1CCCC1 : is its IC50 strictly below 2 nM?
Marked response: Criterion not met

Exam item: Next up: Cc1cc(Oc2ccccc2F)ccc1-n1ncc(C(=O)c2cc3cc(F)c(-n4c(C)cc(=O)[nH]c4=O)cc3[nH]2)c1N
Marked response: Criterion met

Exam item: Next up: Cc1cc(Oc2ccccc2F)ccc1-n1ncc(C(=O)c2cc3cc(OCC(F)F)c(Br)cc3[nH]2)c1N
Marked response: Criterion met

Exam item: Next up: Cc1cc(Oc2ccccc2F)ccc1-n1ncc(C(=O)c2cc3cc(OCC(F)F)c(N4C(=O)NC5(CCN(Cc6ccccc6)C5)C4=O)cc3[nH]2)c1N (stereo not shown)
Marked response: Criterion not met

Exam item: Next up: Cc1cc(Oc2ccccc2F)nc(C)c1-n1ncc(C(=O)c2cc3cc(F)c(NS(C)(=O)=O)cc3[nH]2)c1N
Marked response: Criterion not met

Exam item: Next up: COc1ccccc1S(=O)(=O)Nc1cc2[nH]c(C(=O)c3cnn(-c4cnc(Oc5c(F)cccc5F)cc4C)c3N)cc2cc1OCC(F)F
Marked response: Criterion not met

Exam item: Next up: COc1cc2cc(C(=O)c3cnn(-c4cnc(Oc5ccccc5F)cc4C)c3N)[nH]c2cc1Br
Marked response: Criterion met

Exam item: Next up: Cc1cc(Oc2ccccc2F)ccc1-n1ncc(C(=O)c2cc3cc(F)c(NC4CCN(S(C)(=O)=O)CC4)cc3[nH]2)c1N
Marked response: Criterion met

Exam item: Next up: Cc1cc2cc(C(=O)c3cnn(-c4ccc(Oc5ncccc5Cl)cc4Cl)c3N)[nH]c2cc1N1CCCS1(=O)=O
Marked response: Criterion not met

Exam item: Next up: Cc1cc(-n2ncc(C(=O)c3cc4cc(N5CCOCC5)c(N5CCN(S(C)(=O)=O)CC5)cc4[nH]3)c2N)ccc1Oc1ccccc1F
Marked response: Criterion met

Exam item: Next up: Cc1cc(Oc2ccccc2Cl)ncc1-n1ncc(C(=O)c2cc3cc(NS(C)(=O)=O)c(F)cc3[nH]2)c1N
Marked response: Criterion met

Exam item: Next up: Cc1cc(Oc2c(F)cccc2F)ncc1-n1ncc(C(=O)c2cc3cc(OC4CCN(C(C)C)CC4)c(N)cc3[nH]2)c1N
Marked response: Criterion met

Exam item: Next up: Cc1cc(Oc2ccccc2F)ccc1-n1ncc(C(=O)c2cc3cc(OCC(F)F)c(N4C(=O)[C@@H]5C[C@H](NC(=O)OCc6ccco6)CN5C4=O)cc3[nH]2)c1N
Marked response: Criterion met

----------
study_target: human Yes1 enzyme (Homo sapiens, UniProt P07947)
Construct: made in house
Sequence (P07947 whole entry): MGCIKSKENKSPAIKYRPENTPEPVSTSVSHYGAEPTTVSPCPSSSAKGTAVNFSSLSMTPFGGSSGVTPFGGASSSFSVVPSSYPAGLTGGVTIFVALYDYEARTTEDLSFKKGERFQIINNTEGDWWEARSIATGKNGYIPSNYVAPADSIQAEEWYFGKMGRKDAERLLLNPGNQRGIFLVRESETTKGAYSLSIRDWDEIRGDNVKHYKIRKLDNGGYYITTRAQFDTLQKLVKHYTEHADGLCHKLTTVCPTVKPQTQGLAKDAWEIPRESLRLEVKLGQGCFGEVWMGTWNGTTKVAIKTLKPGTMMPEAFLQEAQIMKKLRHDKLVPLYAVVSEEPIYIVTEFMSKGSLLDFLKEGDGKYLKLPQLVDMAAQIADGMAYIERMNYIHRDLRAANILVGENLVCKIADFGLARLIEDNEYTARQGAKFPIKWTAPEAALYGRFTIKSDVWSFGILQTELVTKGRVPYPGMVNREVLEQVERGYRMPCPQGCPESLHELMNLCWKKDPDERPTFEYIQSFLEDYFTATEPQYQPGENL
assay_comment: Yes1 enzyme inhibitory activity (time-resolved fluorometry, biotinylated peptide phosphorylation)
Type: biochemical
experimental_conditions: read-out: YES_IC50
Criterion: IC50 strictly less than 2 nM. Met: 1.0. Not met: 0.0.

Exam item: Record Cc1cc(Oc2c(F)cccc2F)ncc1-n1ncc(C(=O)c2cc3cc(F)c(N4CCC(N5CCOCC5)CC4)cc3[nH]2)c1N [Example 5-1-112] : is its IC50 strictly below 2 nM?
Marked response: 1.0

Exam item: Next up: Cc1cc(-n2ncc(C(=O)c3cc4cc(OC5CCN(C(C)C)CC5)c(N5CCC(N6CCOCC6)CC5)cc4[nH]3)c2N)ccc1Oc1ccccc1F [Example 5-1-182]
Marked response: 1.0

Exam item: Next up: Cc1cc(Oc2ccccc2F)ccc1-n1ncc(C(=O)c2cc3cc(N4CCOCC4)c(N4CCC(N5CCOCC5)CC4)cc3[nH]2)c1N [Example 5-1-124]
Marked response: 1.0

Exam item: Next up: Cc1cc2cc(C(=O)c3cnn(-c4ccc(Oc5cccc(F)c5)c(C)c4)c3N)[nH]c2cc1NS(C)(=O)=O [Example 5-1-211]
Marked response: 0.0

Exam item: Next up: Cc1cc(Oc2c(F)cccc2F)ncc1-n1ncc(C(=O)c2cc3cc(SC(F)F)c(N4C(=O)NC(C)(C)C4=O)cc3[nH]2)c1N [Example 5-1-324]
Marked response: 0.0

Exam item: Next up: Cc1cc(Oc2c(F)cccc2F)ncc1-n1ncc(C(=O)c2cc3cc(F)c(N4C(=O)NC(C)(C)C4=O)cc3[nH]2)c1N [Example 5-1-114]
Marked response: 1.0

Ref: patent US10479780B2
